Entry source: patent US20230150974A1

# Tgt: HiBiT-BRM (Homo sapiens)
# Construct: expressed in transfected cells
# Sequence (P51531 whole entry): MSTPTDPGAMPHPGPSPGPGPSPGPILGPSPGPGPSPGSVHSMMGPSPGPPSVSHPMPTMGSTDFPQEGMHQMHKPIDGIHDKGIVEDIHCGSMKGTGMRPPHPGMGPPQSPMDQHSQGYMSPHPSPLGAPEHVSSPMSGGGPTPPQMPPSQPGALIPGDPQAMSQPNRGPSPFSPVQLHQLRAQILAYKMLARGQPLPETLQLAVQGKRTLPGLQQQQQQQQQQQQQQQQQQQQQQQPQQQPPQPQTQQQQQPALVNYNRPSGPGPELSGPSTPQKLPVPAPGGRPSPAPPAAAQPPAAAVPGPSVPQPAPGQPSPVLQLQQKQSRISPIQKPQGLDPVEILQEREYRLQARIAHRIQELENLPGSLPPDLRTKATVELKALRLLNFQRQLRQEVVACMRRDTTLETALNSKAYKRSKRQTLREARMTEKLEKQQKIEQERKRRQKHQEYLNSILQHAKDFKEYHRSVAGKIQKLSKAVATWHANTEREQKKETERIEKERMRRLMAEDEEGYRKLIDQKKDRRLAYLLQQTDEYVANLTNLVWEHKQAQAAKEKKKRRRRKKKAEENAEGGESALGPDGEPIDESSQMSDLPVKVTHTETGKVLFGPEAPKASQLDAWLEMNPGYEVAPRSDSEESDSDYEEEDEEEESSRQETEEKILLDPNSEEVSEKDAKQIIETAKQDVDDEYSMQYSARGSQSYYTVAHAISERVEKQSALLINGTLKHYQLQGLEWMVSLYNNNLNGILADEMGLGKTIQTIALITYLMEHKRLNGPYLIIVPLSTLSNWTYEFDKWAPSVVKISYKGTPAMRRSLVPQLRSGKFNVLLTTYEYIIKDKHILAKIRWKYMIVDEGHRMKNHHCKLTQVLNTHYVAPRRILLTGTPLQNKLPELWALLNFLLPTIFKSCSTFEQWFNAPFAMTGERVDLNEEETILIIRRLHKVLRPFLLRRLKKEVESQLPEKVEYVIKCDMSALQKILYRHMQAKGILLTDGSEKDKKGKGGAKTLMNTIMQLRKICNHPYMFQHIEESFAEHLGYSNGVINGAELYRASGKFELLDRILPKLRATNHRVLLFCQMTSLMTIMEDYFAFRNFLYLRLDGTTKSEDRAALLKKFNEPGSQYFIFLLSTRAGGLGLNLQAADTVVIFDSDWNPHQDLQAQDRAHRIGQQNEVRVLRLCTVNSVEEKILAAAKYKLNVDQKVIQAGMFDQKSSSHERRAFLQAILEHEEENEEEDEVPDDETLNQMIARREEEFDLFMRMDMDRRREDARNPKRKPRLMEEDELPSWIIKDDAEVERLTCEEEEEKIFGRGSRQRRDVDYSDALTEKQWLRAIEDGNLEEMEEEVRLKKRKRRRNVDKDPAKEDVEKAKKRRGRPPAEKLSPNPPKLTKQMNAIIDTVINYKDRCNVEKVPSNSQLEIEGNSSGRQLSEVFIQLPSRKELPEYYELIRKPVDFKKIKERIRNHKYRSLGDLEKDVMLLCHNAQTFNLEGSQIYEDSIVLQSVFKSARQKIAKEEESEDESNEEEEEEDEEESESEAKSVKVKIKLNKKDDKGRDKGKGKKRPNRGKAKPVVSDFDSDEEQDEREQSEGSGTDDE
# Experimental details: HiBiT-BRM cell-based degradation assay (Nano-Glo HiBiT Lytic Detection)
# Applied conditions: HeLa cells expressing HiBiT-BRM, 24 h; read-out: BRM HiBit Degradation IC50
Record form. Attribute: DC50. Fill in for each entry.

query: Entry under review: `Cc1ncsc1-c1ccc(CNC(=O)[C@@H]2C[C@@H](O)CN2C(=O)[C@@H](NC(=O)CCN2CC3(C2)CN(CC(=O)NCc2ccc(CCOc4cc(-c5ccccc5O)nnc4N)cc2)C3)C(C)(C)C)cc1` . Reported DC50?
result: > 1000 nM

query: Do the same for Nc1nnc(-c2ccccc2O)cc1N1CCN(C(=O)C2CC2CNC(=O)COc2ccc3c(c2)C(=O)N(C2CCC(=O)NC2=O)C3=O)CC1 (stereo not shown) please
result: > 1000 nM

query: Do the same for Nc1nnc(-c2ccccc2O)cc1OCCc1ccc(CNCCCCCOc2cccc3c2C(=O)N(C2CCC(=O)NC2=O)C3=O)cc1 (stereo not shown) please
result: > 100 nM

query: Do the same for `Cc1ncsc1-c1ccc(CNC(=O)[C@@H]2C[C@@H](O)CN2C(=O)[C@@H](NC(=O)CCN2CCC(OC3CCN(CCC(=O)NCc4ccc(CCOc5cc(-c6ccccc6O)nnc5N)cc4)CC3)CC2)C(C)(C)C)cc1` please
result: > 1000 nM

query: Do the same for `Cc1ncsc1-c1ccc([C@H](C)NC(=O)[C@@H]2C[C@@H](O)CN2C(=O)[C@@H](NC(=O)CN2CCC(OC3CCN(CCC(=O)NCc4ccc(CCOc5cc(-c6ccccc6O)nnc5N)cc4)CC3)CC2)C(C)(C)C)cc1` please
result: > 100 nM

query: Do the same for `Cc1ncsc1-c1ccc([C@H](C)NC(=O)[C@@H]2C[C@@H](O)CN2C(=O)[C@@H](NC(=O)CCNCCCCCCCCCCC(=O)NCc2ccc(CCOc3cc(-c4ccccc4O)nnc3N)cc2)C(C)(C)C)cc1` please
result: > 1000 nM

query: Do the same for Nc1nnc(-c2ccccc2O)cc1OCCc1ccc(CN2CC(CCCOc3cccc4c3C(=O)N(C3CCC(=O)NC3=O)C4=O)C2)cc1 (stereo not shown) please
result: > 1000 nM

query: Do the same for `Cc1ncsc1-c1ccc(CNC(=O)[C@@H]2C[C@@H](O)CN2C(=O)[C@@H](NC(=O)CCCCCCCNC(=O)CN2CCN(c3cc(-c4ccccc4O)nnc3N)CC2)C(C)(C)C)cc1` please
result: > 1000 nM

query: Do the same for Nc1nnc(-c2ccccc2O)cc1OCCc1ccc(CNC(=O)CCCCNc2ccc3c(c2)C(=O)N(C2CCC(=O)NC2=O)C3=O)cc1 (stereo not shown) please
result: > 1000 nM

query: Do the same for `Cc1ncsc1-c1ccc(CNC(=O)[C@@H]2C[C@@H](O)CN2C(=O)[C@@H](NC(=O)CCCCCCCC(=O)NCc2ccc(CCOc3cc(-c4ccccc4O)nnc3N)cc2)C(C)(C)C)cc1` please
result: > 100 nM

---

Record form. Attribute: DC50. Fill in for each entry.
# Tgt: HiBit-BRG1 (Homo sapiens, UniProt P51532)
# Construct: expressed in transfected cells
# Sequence (P51532 whole entry): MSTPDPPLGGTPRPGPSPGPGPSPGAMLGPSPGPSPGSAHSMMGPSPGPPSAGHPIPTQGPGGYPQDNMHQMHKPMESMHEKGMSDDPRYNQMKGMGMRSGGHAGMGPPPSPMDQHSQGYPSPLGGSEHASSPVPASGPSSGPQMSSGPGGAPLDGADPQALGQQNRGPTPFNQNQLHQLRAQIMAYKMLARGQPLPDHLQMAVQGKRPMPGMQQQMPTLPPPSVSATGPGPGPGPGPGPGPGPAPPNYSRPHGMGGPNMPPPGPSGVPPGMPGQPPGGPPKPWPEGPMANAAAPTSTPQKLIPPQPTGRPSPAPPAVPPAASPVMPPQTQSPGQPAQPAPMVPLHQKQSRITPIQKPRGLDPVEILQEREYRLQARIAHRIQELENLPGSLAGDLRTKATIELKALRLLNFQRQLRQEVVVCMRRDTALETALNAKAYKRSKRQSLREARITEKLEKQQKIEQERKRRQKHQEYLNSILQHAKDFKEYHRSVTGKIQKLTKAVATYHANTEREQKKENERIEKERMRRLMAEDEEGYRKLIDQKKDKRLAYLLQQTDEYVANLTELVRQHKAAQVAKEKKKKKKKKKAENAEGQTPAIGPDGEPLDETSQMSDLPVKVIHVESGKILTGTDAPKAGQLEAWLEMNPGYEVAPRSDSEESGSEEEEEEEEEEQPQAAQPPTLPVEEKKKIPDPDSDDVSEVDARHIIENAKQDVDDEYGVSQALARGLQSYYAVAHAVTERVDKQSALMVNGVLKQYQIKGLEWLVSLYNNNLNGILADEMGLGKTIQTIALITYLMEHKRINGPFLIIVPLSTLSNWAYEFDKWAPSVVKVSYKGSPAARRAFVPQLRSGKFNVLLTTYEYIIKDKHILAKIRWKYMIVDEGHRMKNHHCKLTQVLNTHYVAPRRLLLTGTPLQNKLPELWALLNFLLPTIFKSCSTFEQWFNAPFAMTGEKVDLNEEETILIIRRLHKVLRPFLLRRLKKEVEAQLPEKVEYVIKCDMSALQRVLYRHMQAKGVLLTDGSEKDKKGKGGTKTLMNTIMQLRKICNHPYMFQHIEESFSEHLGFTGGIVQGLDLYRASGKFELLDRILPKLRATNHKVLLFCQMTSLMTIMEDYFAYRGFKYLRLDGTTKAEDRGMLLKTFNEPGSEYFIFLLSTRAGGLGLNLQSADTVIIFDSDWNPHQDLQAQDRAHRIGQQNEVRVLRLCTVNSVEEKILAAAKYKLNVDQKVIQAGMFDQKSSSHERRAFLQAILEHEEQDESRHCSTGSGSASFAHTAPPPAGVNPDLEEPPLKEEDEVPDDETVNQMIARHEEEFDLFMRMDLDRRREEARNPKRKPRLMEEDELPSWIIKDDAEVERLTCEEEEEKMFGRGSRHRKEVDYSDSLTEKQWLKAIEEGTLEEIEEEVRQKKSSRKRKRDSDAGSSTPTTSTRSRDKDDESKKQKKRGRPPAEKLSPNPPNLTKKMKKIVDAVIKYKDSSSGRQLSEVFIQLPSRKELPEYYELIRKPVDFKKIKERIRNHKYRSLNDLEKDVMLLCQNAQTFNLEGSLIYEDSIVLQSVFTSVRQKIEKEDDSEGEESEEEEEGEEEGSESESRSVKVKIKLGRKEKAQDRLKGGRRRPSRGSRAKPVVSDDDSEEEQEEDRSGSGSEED
# Experimental details: HiBit-BRG1 cell-based degradation assay (Nano-Glo HiBiT Lytic Detection)
# Applied conditions: HeLa cells expressing HiBit-BRG1 and LgBit, 24 h; read-out: BRG1 HiBit Degradation IC50

query: Hi! What's the reported DC50 for Nc1nnc(-c2ccccc2O)cc1NCCc1ccc(CNC(=O)CCCCNc2cccc3nnn(C4CCC(=O)NC4=O)c(=O)c23)cc1 (stereo not drawn) [Compound 141] on HiBit-BRG1 (Homo sapiens, UniProt P51532)?
result: > 1000 nM

query: Do the same for Cc1ncsc1-c1ccc(CNC(=O)[C@@H]2C[C@@H](O)CN2C(=O)[C@@H](NC(=O)CN2CCC(OC3CCN(CCC(=O)NCc4ccc(CCOc5cc(-c6ccccc6O)nnc5N)cc4)CC3)CC2)C(C)(C)C)cc1 [Compound 244] please
result: > 1000 nM

query: Do the same for Cc1ncsc1-c1ccc(CNC(=O)[C@@H]2C[C@@H](O)CN2C(=O)[C@@H](NC(=O)CCN2CCC(OC3CN(C(=O)c4ccc(CCOc5cc(-c6ccccc6O)nnc5N)cc4)C3)CC2)C(C)(C)C)cc1 [Compound 245] please
result: > 1000 nM

---

# Tgt: HiBit-BRG1 (Homo sapiens, UniProt P51532)
# Construct: expressed in transfected cells
# Experimental details: HiBit-BRG1 cell-based degradation assay (Nano-Glo HiBiT Lytic Detection)
# Applied conditions: HeLa cells expressing HiBit-BRG1 and LgBit, 24 h; read-out: BRG1 HiBit Degradation Maximum (%)
Property measured: Dmax

query: Entry under review: Nc1nnc(-c2ccccc2O)cc1N1CCN(CC(=O)NCCCCCCCCNc2ccc3c(c2)C(=O)N(C2CCC(=O)NC2=O)C3=O)CC1 (centres unmarked) . Reported Dmax?
result: < 50%

query: Do the same for Nc1nnc(-c2ccccc2O)cc1OCCc1ccc(CNC(=O)CCNc2cccc3nnn(C4CCC(=O)NC4=O)c(=O)c23)cc1 (centres unmarked) please
result: < 50%

query: Do the same for Nc1nnc(-c2ccccc2O)cc1N1CCN(CC(=O)NCCCCS(=O)(=O)CCCNc2cccc3c2C(=O)N(C2CCC(=O)NC2=O)C3=O)CC1 (centres unmarked) please
result: < 50%

query: Do the same for Cc1nc2cccc(NCCCCCCNC(=O)c3ccc(CCOc4cc(-c5ccccc5O)nnc4N)cc3)c2c(=O)n1C1CCC(=O)NC1=O (centres unmarked) please
result: < 50%

query: Do the same for `Cc1ncsc1-c1ccc([C@H](C)NC(=O)[C@@H]2C[C@@H](O)CN2C(=O)[C@@H](c2cc(OCCN3CCC(C4CN(C(=O)c5ccc(CCOc6cc(-c7ccccc7O)nnc6N)cc5)C4)CC3)no2)C(C)C)cc1` please
result: < 50%

query: Do the same for `Cc1ncsc1-c1ccc(CNC(=O)[C@@H]2C[C@@H](O)CN2C(=O)[C@@H](NC(=O)CCCCN2CCN(CCC(=O)NCc3ccc(CCOc4cc(-c5ccccc5O)nnc4N)cc3)CC2)C(C)(C)C)cc1` please
result: < 50%

query: Do the same for Nc1nnc(-c2ccccc2O)cc1OCCc1ccc(CNCCCCCNc2ccc3c(c2)C(=O)N(C2CCC(=O)NC2=O)C3=O)cc1 (centres unmarked) please
result: > 75%

query: Do the same for `Cc1ncsc1-c1ccc([C@H](C)NC(=O)[C@@H]2C[C@@H](O)CN2C(=O)[C@@H](c2cc(OCCN3CCC4(CC3)CC(C(=O)NCc3ccc(CCOc5cc(-c6ccccc6O)nnc5N)cc3)C4)no2)C(C)C)cc1` please
result: > 75%

query: Do the same for `Cc1ncsc1-c1ccc(CNC(=O)[C@@H]2C[C@@H](O)CN2C(=O)[C@@H](NC(=O)CCN2CCC(OC3CCN(C(=O)c4ccc(CCOc5cc(-c6ccccc6O)nnc5N)cc4)CC3)CC2)C(C)(C)C)cc1` please
result: < 50%

query: Do the same for `Cc1ncsc1-c1ccc(CNC(=O)[C@@H]2C[C@@H](O)CN2C(=O)[C@@H](NC(=O)CCCCCCCC(=O)NCc2ccc(CCOc3cc(-c4ccccc4O)nnc3N)cc2)C(C)(C)C)cc1` please
result: > 50%

query: Do the same for Cc1ncsc1-c1ccc(CNC(=O)[C@H]2C[C@H](O)CN2C(=O)[C@H](NC(=O)CCCCCNC(=O)CN2CCN(c3cc(-c4ccccc4O)nnc3N)CC2)C(C)(C)C)cc1 (stereo in doubt) please
result: < 50%

query: Do the same for `Cc1ncsc1-c1ccc([C@H](C)NC(=O)[C@@H]2C[C@@H](O)CN2C(=O)[C@@H](NC(=O)CCCCN2CCN(CCC(=O)NCc3ccc(CCOc4cc(-c5ccccc5O)nnc4N)cc3)CC2)C(C)(C)C)cc1` please
result: < 50%

query: Do the same for `Cc1ncsc1-c1ccc(CNC(=O)[C@@H]2C[C@@H](O)CN2C(=O)[C@@H](NC(=O)CCN2CC3=C(C2)CN(C(=O)c2ccc(CCOc4cc(-c5ccccc5O)nnc4N)cc2)C3)C(C)(C)C)cc1` please
result: < 50%

query: Do the same for `Cc1ncsc1-c1ccc([C@H](C)NC(=O)[C@@H]2C[C@@H](O)CN2C(=O)[C@@H](c2cc(OCCN3CC(CC(=O)NCc4ccc(CCOc5cc(-c6ccccc6O)nnc5N)cc4)C3)no2)C(C)C)cc1` please
result: < 50%

query: Do the same for `Cc1ncsc1-c1ccc([C@H](C)NC(=O)[C@@H]2C[C@@H](O)CN2C(=O)[C@@H](NC(=O)CCCCCCCCC(=O)NCc2ccc(CCOc3cc(-c4ccccc4O)nnc3N)cc2)C(C)(C)C)cc1` please
result: < 50%

query: Do the same for `Cc1ncsc1-c1ccc([C@H](C)NC(=O)[C@@H]2C[C@@H](O)CN2C(=O)[C@@H](NC(=O)CCCCCCCCCCCCCCC(=O)N(C)Cc2ccc(CCOc3cc(-c4ccccc4O)nnc3N)cc2)C(C)(C)C)cc1` please
result: < 50%

query: Do the same for Nc1nnc(-c2ccccc2O)cc1N1CCN(CC(=O)N2CC(COc3ccc4c(c3)C(=O)N(C3CCC(=O)NC3=O)C4=O)C2)CC1 (centres unmarked) please
result: < 50%

query: Do the same for Cc1ncsc1-c1ccc([C@H](C)NC(=O)[C@@H]2C[C@@H](O)CN2C(=O)[C@@H](c2cc(OCCN3CC4CN(C(=O)c5ccc(CCOc6cc(-c7ccccc7O)nnc6N)cc5)CC43)no2)C(C)C)cc1 (some centres unmarked) please
result: > 75%

query: Do the same for Nc1nnc(-c2ccccc2O)cc1OCCc1ccc(CNCCN2CC3CC2CN3c2cccc3c2C(=O)N(C2CCC(=O)NC2=O)C3=O)cc1 (centres unmarked) please
result: > 50%

query: Do the same for Nc1nnc(-c2ccccc2O)cc1OCCc1ccc(CNC(=O)CCCCCCCOc2cccc3c2C(=O)N(C2CCC(=O)NC2=O)C3=O)cc1 (centres unmarked) please
result: < 50%
